# protocol.summary: Therapeutic index, ratio of IC50 for Trypanosoma brucei rhodesiense STIB-900 to cytotoxicity against mouse macrophages
quantity.measured: selectivity ratio
I only need the number, thanks.

Entry COc1ccc(C2=NN(C3CCCCCC3)C(=O)C2(C)C)cc1OCCCCOc1ccc(-c2nnn[nH]2)cc1 needs its selectivity ratio filled in; supply it.
250

###

Listed below: IC50 values for each entry.
# measurement.target: Class 1 phosphodiesterase PDEB1 (Trypanosoma brucei)
# Sequence (Q8WQX9 whole entry): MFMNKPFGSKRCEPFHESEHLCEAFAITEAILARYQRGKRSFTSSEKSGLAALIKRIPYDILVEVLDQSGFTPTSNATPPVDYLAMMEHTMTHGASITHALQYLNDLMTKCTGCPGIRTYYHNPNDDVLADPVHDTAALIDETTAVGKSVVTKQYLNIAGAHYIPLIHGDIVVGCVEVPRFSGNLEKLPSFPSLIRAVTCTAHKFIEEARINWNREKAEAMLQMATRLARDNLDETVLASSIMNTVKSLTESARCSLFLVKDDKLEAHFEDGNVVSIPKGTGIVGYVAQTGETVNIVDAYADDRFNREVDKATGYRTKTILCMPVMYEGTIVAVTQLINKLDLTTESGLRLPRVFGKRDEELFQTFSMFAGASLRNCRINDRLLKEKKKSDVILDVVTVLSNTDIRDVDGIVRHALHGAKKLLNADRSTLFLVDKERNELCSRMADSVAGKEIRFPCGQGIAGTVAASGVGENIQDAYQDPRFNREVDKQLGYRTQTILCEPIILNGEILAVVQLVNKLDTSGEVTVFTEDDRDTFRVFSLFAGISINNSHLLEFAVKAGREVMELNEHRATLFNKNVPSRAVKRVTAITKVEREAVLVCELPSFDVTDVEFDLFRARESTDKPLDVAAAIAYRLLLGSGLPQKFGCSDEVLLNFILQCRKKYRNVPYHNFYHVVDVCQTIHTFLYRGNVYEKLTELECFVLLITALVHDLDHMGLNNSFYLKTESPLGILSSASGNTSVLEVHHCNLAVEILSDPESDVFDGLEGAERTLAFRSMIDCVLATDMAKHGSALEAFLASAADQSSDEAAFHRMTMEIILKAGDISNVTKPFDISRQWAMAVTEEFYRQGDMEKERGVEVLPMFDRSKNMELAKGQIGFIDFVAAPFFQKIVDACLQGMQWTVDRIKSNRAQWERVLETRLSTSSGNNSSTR
# protocol.summary: Inhibition of Trypanosoma brucei recombinant TbrPDEB1 expressed in Sf21 insect cells assessed as reduction of [3H]-cAMP hydrolysis by scintillation proximity assay

The cases that follow already have their IC50 on record.
Return the recorded IC50 value; entry: COc1ccc(C2=NNC(=O)C2(C)C)cc1Cl
> 10 µM

Item COc1ccc(C2=NN(C3CCCCCC3)C(=O)C2(C)C)cc1Cl : provide IC50
2 µM

// Input: COc1ccc(C2=NN(C)C(=O)C2(C)C)cc1OCc1ccccc1 . Output its IC50 only.
10 µM

Return reported IC50. Input compound: COc1ccc(C2=NN(C(C)C)C(=O)C2(C)C)cc1OCc1cccc2ccccc12
0.79 µM

Determine from records and report IC50 for COc1ccc(C2=NN(C(C)C)C(=O)C2(C)C)cc1OCCCCOc1ccc(C#N)cc1
5 µM

Dear colleague, please send me the reported IC50 for COc1ccc(C2=NN(C3CCCCCC3)C(=O)C2(C)C)cc1Br when you can.
2.5 µM

Name the recorded IC50 of the compound listed here: COc1ccc(C2=NNC(=O)C2(C)C)cc1Br
> 10 µM

Identify measured IC50 associated with COc1ccc(C2=NN(C(C)C)C(=O)C2(C)C)cc1OCc1cc(C)on1
5 µM

Next:
Specify measured IC50 for COc1ccc(C2=NN(C3CCCCCC3)C(=O)C2(C)C)cc1OC1CCCC1 .
0.41 µM

Quick one: give measured IC50 for COc1ccc(C2=NN(C(C)C)C(=O)C2(C)C)cc1Br
> 10 µM

Retrieve IC50 measured for COc1ccc(C2=NNC(=O)C2(C)C)cc1OC1CCCC1 and print it.
12 µM

###

Reported IC50 values for the following compounds.
# measurement.target: Class 1 phosphodiesterase PDEB1 (Trypanosoma brucei)
# protocol.summary: Inhibition of Trypanosoma brucei recombinant TbrPDEB1 expressed in Sf21 insect cells assessed as reduction of [3H]-cAMP hydrolysis by scintillation proximity assay
State just the number; it will be interpreted in µM.

Some solved entries appear below for comparison.
Specify reported IC50 for the compound shown: COc1ccc(CCOc2cc(C3=NN(C4CCCCCC4)C(=O)C3(C)C)ccc2OC)cc1
0.63

Give a short answer stating reported IC50 for COc1ccc(C2=NN(C3CCCCCC3)C(=O)C2(C)C)cc1OCCCCOc1ccc(-c2nnn[nH]2)cc1 .
0.049

Look up IC50 of COc1ccc(C2=NN(C3CCCCCC3)C(=O)C2(C)C)cc1OCc1cc(C)on1 and report it.
0.63

Next:
Hello, please tell me recorded IC50 for this one: COc1ccc(C2=NN(C(C)C)C(=O)C2(C)C)cc1OCc1ccccn1
2.5

Identify measured IC50 corresponding to COc1ccc(C2=NN(C3CCCCCC3)C(=O)C2(C)C)cc1OCc1ccccc1
0.5

Using the record for COc1ccc(COc2cc(C3=NN(C(C)C)C(=O)C3(C)C)ccc2OC)cc1 , state its measured IC50.
2

Fill in reported IC50 for this entry: COc1ccc(COc2cc(C3=NN(C4CCCCCC4)C(=O)C3(C)C)ccc2OC)cc1
0.79
